molecular target: FmlHLD (Escherichia coli); construct: 6xHis (C); made in house; host or cells: E. coli C600, periplasm, pTRC99a; test: biochemical; type: binding, E. coli; details: read-out: PI10 (percent inhibition), galactoside at 10 μM; mean with standard error of the mean
Sequence (P77588 25-182): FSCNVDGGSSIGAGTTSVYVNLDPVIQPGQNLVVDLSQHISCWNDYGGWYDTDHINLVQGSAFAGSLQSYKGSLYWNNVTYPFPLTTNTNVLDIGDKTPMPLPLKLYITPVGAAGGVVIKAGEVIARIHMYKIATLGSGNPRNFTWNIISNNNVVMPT
measure: inhibition at 10 µM

compound=COC(=O)c1cccc(-c2ccccc2O[C@@H]2O[C@H](CO)[C@H](O)[C@H](O)[C@H]2O)c1 result=22.4%
compound=OC[C@H]1O[C@@H](SCCc2ccccc2)[C@H](O)[C@@H](O)[C@H]1O result=2.3%
compound="N#Cc1ccc(O[C@@H]2O[C@H](CO)[C@H](O)[C@H](O)[C@H]2O)cc1 [Compound 9β, 4-cyanophenyl β-D-galactopyranoside]" result=19.2%
compound=OC[C@H]1O[C@@H](Oc2ccc3ccccc3c2)[C@H](O)[C@@H](O)[C@H]1O result=14.6%
compound="Cc1ccccc1O[C@@H]1O[C@H](CO)[C@H](O)[C@H](O)[C@H]1O [Compound 2β, 2-Methylphenyl α/β-D-Galactopyranoside]" result=28.2%
compound=Cc1cc(=O)oc2c(F)c(O[C@@H]3O[C@H](CO)[C@H](O)[C@H](O)[C@H]3O)c(F)cc12 result=0.8%
compound="N#Cc1ccccc1O[C@@H]1O[C@H](CO)[C@H](O)[C@H](O)[C@H]1O [Compound 3β, 2-cyanophenyl α/β-D-galactopyranoside]" result=30.4%
compound="O=c1ccc2nc3ccc(O[C@@H]4O[C@H](CO)[C@H](O)[C@H](O)[C@H]4O)cc3oc-2c1 [Compound 15β, Resorufin galactoside]" result=24%
compound=O=C(O)c1cccc(-c2ccccc2O[C@@H]2O[C@H](CO)[C@H](O)[C@H](O)[C@H]2O)c1 result=75%
